# Tested on: AS120
# Assay summary: qHTS profiling for inhibitors of Plasmodium falciparum proliferation (AID 504749); note: nearly all actives have a fitted effect of over 60% in size
# Recorded conditions: P. falciparum in erythrocytes, SYBR Green DNA, 72 h; series mostly up to 28.7 µM
Records with an inconclusive call do not appear. Activity calls are given as the source filed them. Calls come from the whole dose curve; as a rule, active = well fitted inhibition curve with a large enough effect; inconclusive = small, poorly fitted or top-dose-only effect; inactive = flat fitted curve, though single readings scatter.
Your reply should match one of these outcome classes. active, inactive

Q: Which result was noted for this compound in the test: `Cc1nnc(NS(=O)(=O)c2ccc(N)cc2)s1`
Ans: inactive

Q: Which result was noted for this compound in the test: `Oc1c(Cl)cc(Cl)c2cccnc12`
Ans: active

Q: Which result was noted for this compound in the test: `Nc1nc(N)nc(-c2cc(Cl)ccc2Cl)n1`
Ans: inactive
